- target_system: T1, Human PDGF-BB (human, UniProt P01127 82-190)
- T1 construct: Recombinant human PDGF-BB, a homodimer of two B chains; also called hPDGF-BB; huPDGF-BB
- T1 sequence (P01127 82-190 limits assumed): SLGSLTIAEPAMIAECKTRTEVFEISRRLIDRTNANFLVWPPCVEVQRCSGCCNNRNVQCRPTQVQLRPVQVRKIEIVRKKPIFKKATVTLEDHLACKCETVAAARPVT
- test_details: SPR (Biacore), antibody captured via anti-human Fc, antigen in solution
Listed here are binders together with their documented Kd.

Q) Please list Kd recorded for the binder hBDI-5H1.5 (antibody, V domains shown, Humanized IgG) VH: EVTLKESGPALVKPTQTLTLTCTFSGFSLSTFGMGVGWIRQPPGKALEWLANIWWDDDKYYNPSLKNRLTISKDTSKNQAVLTITNMDPVDTATYYCARISTGISSYYVMDAWGQGTTVTVSS VL: NFMLTQPHSVSESPGKTVTISCERSSGDIGDTYVSWYQQRPGSSPTTVIYGNDQRPSGVPDRFSGSIDSSSNSASLTISGLKTEDEADYYCQSYDSDIDIVFGGGTKLTVL
A) ≤ 0.17 nM

Q) Look up and report measured Kd for this entry: hBDI-5H1.3 (antibody, V domains shown, Humanized IgG) VH: EVTLRESGPALVKPTQTLTLTCTFSGFSLSTFGMGVGWIRQPPGKALEWLANIWWDDDKYYNPSLKNRLTISKDTSKNQVVLTMTNMDPVDTATYYCARISTGISSYYVMDAWGQGTTVTVSS VL: EIVLTQSPGTLSLSPGERATLSCERSSGDIGDTYVSWYQQKPGQAPRLLIYGNDQRPSGIPDRFSGSGSGTDFTLTISRLEPEDFAVYYCQSYDSDIDIVFGGGTKVEIK
A) ≤ 0.45 nM

Q) Please give measured Kd of the following entry: hBDI-5H1.2 (antibody, V domains shown, Humanized IgG) VH: EVTLRESGPALVKPTQTLTLTCTFSGFSLSTFGMGVGWIRQPPGKALEWLANIWWDDDKYYNPSLKNRLTISKDTSKNQVVLTMTNMDPVDTATYYCARISTGISSYYVMDAWGQGTTVTVSS VL: NFMLTQPHSVSESPGKTVTISCERSSGDIGDTYVSWYQQRPGSPPTNVIYGNDQRPSGVPDRFSGSIDSSSNSASLTISGLKTEDEADYFCQSYDSDIDIVFGGGTKLTVL
A) ≤ 0.19 nM

Q) Note Kd for the binder shown: hBDI-5H1.1 (antibody, V domains shown, Humanized IgG) VH: EVTLRESGPALVKPTQTLTLTCTFSGFSLSTFGMGVGWIRQPPGKALEWLANIWWDDDKYYNPSLKNRLTISKDTSKNQVVLTMTNMDPVDTATYYCARISTGISSYYVMDAWGQGTTVTVSS VL: NFMLTQPHSVSESPGKTVTISCERSSGDIGDTYVSWYQQRPGSSPTTVIYGNDQRPSGVPDRFSGSIDSSSNSASLTISGLKTEDEADYYCQSYDSDIDIVFGGGTKLTVL
A) ≤ 0.41 nM

Q) Specify reported Kd for the binder shown: hBDI-5H1.12 (antibody, V domains shown, Humanized IgG) VH: EVQLVESGGGLVQPGGSLRLSCAFSGFSLSTFGMGVGWIRQAPGKGLEWLANIWWDDDKYYNPSLKNRLTISKDTSKNQAYLQINSLRAEDTAVYYCARISTGISSYYVMDAWGQGTLVTVSS VL: DFQLTQSPSSLSASVGDRVTITCERSSGDIGDTYVSWYQQKPGKAPKNVIYGNDQRPSGVPSRFSGSGSGNSATLTISSLQPEDFATYFCQSYDSDIDIVFGQGTKVEIK
A) ≤ 0.23 nM
